Test system Type-2 angiotensin II receptor (Rattus norvegicus), IC50 listed for each of the molecules.
outcomeMeasure: IC50

[
  {
    "molecule": "CCCCc1nc(Cl)c(C(=O)O)n1Cc1ccc(-c2ccccc2-c2nn[nH]n2)cc1 [CARBOXYLIC ACID METABOLITE]",
    "studySystem": "Type-2 angiotensin II receptor (Rattus norvegicus)",
    "readoutValue": "50 µM"
  },
  {
    "molecule": "CCc1nc2c(C)cc(C)nc2n1Cc1ccc(-c2ccccc2S(=O)(=O)NC(=O)c2ccccc2)cc1",
    "studySystem": "Type-2 angiotensin II receptor (Rattus norvegicus)",
    "readoutValue": "2.9 µM"
  },
  {
    "molecule": "CCc1nc2c(C)cc(C)nc2n1Cc1ccc(-c2ccccc2S(=O)(=O)NC(=O)C2CC2)cc1",
    "studySystem": "Type-2 angiotensin II receptor (Rattus norvegicus)",
    "readoutValue": "2.4 µM"
  }
]
